target: HMGB1 box A and box B (rat, UniProt P63159 8-165)
Sequence (P63159 8-165): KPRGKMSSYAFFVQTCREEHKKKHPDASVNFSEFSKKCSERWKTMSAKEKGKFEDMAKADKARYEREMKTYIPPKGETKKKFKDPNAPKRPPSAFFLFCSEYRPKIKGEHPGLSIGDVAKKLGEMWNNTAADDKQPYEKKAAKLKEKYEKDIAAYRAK
method_description: SPR; K1, high-affinity site of two-site fit; SPR (Biacore X-100), HEPES 1 buffer: 10 mM HEPES, 3 mM EDTA, 200 mM NaCl, 0.05% P-20, pH 7.4, 25 C
measurement_context: protein: recombinant; tags: GST (GST-tagged construct in pGEX2T); label: 5'-biotin; hairpin as stated by the authors; loop underlining lost in text
pKd: −log10 of the molar value.
experimental_readout: pKd

[[record]]
binder = "GGGGAATAATCGCGATTATTCCCCAATAATCGCGATTATT (structured_DNA) [AATAAT_ATTATT hairpin]"
experimental_readout = "pKd"
reported_measurement = 6.48


The measured values listed here are drawn from paper PMC5737332.
